pKi: −log10 of the molar value.
The next entries give measured pKi for MC5 (Homo sapiens).
measured quantity: pKi

N=C(N)NN=Cc1cccn1-c1ccc(C(F)(F)F)cc1 = 5.11
N=C(N)NN=Cc1cccn1-c1cc(Cl)cc(Cl)c1 = 5.12
